Numbers sourced from patent US4154932A.

Tested on: phenylquinone induced writhings
Run description: animal or person
Measurement conditions: Mus musculus, sc, read-out: Agonist Activity, Phenylquinone Writhing ED50
Procedure: In vivo testing was conducted on many of the compounds of the present invention.
Listed molecules paired with reported log10(ED50)
// do not treat as linear: log10 of ED50, unit mg/kg

Noted log10(ED50) for COc1ccc2c(c1)[C@]13CCN(CC4CC4)[C@H](C2)[C@@H]1CCOC3 (racemic) [(±)-X] , tested on phenylquinone induced writhings: -0.42

Assay phenylquinone induced writhings, sample COc1ccc2c(c1)[C@]13CCN(CC4CCC4)[C@H](C2)[C@@H]1CCOC3 (racemic) [(±)-XIII] , log10(ED50) read: -0.42

Entry COc1ccc2c(c1)[C@]13CCN(C)[C@H](C2)[C@@H]1CCOC3 (racemic) [(±)-V, 3-Methoxy-17-methyl-6-oxamorphinan] , phenylquinone induced writhings data, log10(ED50) value: 0.12

Recorded log10(ED50) for Oc1ccc2c(c1)[C@]13CCN(CC4CCC4)[C@H](C2)[C@@H]1CCOC3 (racemic) [(±)-XIV] on phenylquinone induced writhings was -1.82

Per the reported phenylquinone induced writhings data, CN1CCC23COCCC2C1Cc1ccc(O)cc13 (racemic) [(±)-VI] has log10(ED50) of -0.47

Continuing:
Summary: Oc1ccc2c(c1)[C@]13CCN(CC4CC4)[C@H](C2)[C@@H]1CCOC3 (racemic) [(±)-XI] , phenylquinone induced writhings, log10(ED50) = -1.43

Kindly note: phenylquinone induced writhings, COc1ccc2c(c1)[C@]13CCN(CC4CC4)[C@H](C2)[C@@H]1CCOC3 [(-)-X] , log10(ED50) value reported: -0.85

Lab note: molecule Oc1ccc2c(c1)[C@]13CCN(CC4CC4)[C@H](C2)[C@@H]1CCOC3 [(-)-XI] tested on phenylquinone induced writhings; recorded log10(ED50) was -1.55
